- Tested on: Chinese hamster ovary (CHO) cell line
- method: MTT cytotoxicity assay
- Assay type: cell-based
- testParameters: Cricetulus griseus, CHO, 48 h, read-out: CHO IC50
pIC50: −log10 of the molar value.
assayReadout: pIC50

Query string: I have this compound here, O=C(NC(=S)N(CCO)CCO)c1ccccc1 [compound 2] , and I need its recorded pIC50.
Result string: < 4.30

---

- method: Kinetic solubility by HPLC (pH 6.5)
- testParameters: phosphate buffer, 25 °C, pH 6.5, aqueous buffer, thermodynamic from solid
assayReadout: solubility at 24 h

Query string: Which solubility at 24 h reading was recorded for the molecule CS(=O)(=O)c1ccc(-c2cnc(N)c(-c3ccc(C(F)(F)F)nc3)c2)cc1 [MMV390048, reference compound] ?
Result string: < 5 µM

---

Each entry below lists one item and its recorded pIC50 value.
- experimentalTarget: late-stage gametocytes (NF54-PfS16-GFP-Luc)
- method: Luciferase reporter assay, late-stage gametocytes
- Format: cell-based, Plasmodium falciparum
- testParameters: late (IV/V) gametocytes, luciferase, 48 h; read-out: LG IC50
pIC50: −log10 of the molar value.

Look over these answered cases.
OCCN(CCO)C1=NC(c2ccccc2)=[O+][Pt-2]2([S]1)[n+]1ccc(O)cc1-c1cc(O)cc[n+]12.[Cl-] :: < 4.70
Nc1cc[n+]2c(c1)-c1cc(N)cc[n+]1[Pt-2]21[O+]=C(c2ccccc2)N=C(N(CCO)CCO)[S]1.[Cl-] :: < 4.70
CNC(=O)c1cc[n+]2c(c1)-c1cc(C(=O)NC)cc[n+]1[Pt-2]21[O+]=C(c2ccccc2)N=C(N(CCO)CCO)[S]1.[Cl-] :: < 4.70

Now turn to the next compound.
Query string: Returns the measured pIC50 for the input compound. Input: OCCN(CCO)C1=NC(c2ccccc2)=[O+][Pt-2]2([S]1)[n+]1ccc(C(F)(F)F)cc1-c1cc(C(F)(F)F)cc[n+]12.[Cl-]
Result string: 6.42

---

Below is a list of entries, each paired with its recorded RI (resistance index) value.
- System: PfK1 ABS parasites
- Assay type: cell-based, Plasmodium falciparum
- testParameters: RI = PfK1 IC50/PfNF54 IC50
Answer field: number only, no words.

Guide cases for RI (resistance index), answers given:
Nc1cc[n+]2c(c1)-c1cc(N)cc[n+]1[Pt-2]21[O+]=C(c2ccccc2)N=C(N(CCO)CCO)[S]1.[Cl-] [C6] :: 2.8
Cc1cccc(-c2cccc(C)n2)n1.OCCN(CCO)C(=S)N=C([O][Pt+])c1ccccc1.[Cl-] [C15] :: 0.9

Query string: Find the recorded RI (resistance index) belonging to Cc1ccc(-c2ccc(C)cn2)nc1.OCCN(CCO)C(=S)N=C([O][Pt+])c1ccccc1.[Cl-] [C14] and report it.
Result string: 3.7

Query string: Please give the measured RI (resistance index) for this compound: Cc1cc[n+]2c(c1)-c1cc(C)cc[n+]1[Pt-2]21[O+]=C(c2ccccc2)N=C(N(CCO)CCO)[S]1.[Cl-] [C2]
Result string: 0.4

Query string: RI (resistance index) for COc1cc[n+]2c(c1)-c1cc(OC)cc[n+]1[Pt-2]21[O+]=C(c2ccccc2)N=C(N(CCO)CCO)[S]1.[Cl-] [C4] ?
Result string: 0.6

---

IC50 reference
- experimentalTarget: early-stage gametocytes (NF54-PfS16-GFP-Luc)
- method: Luciferase reporter assay, early-stage gametocytes
- Format: cell-based, Plasmodium falciparum
- testParameters: early (II/III) gametocytes, luciferase, 48 h; read-out: EG IC50

Some entries whose results are on file:
OCCN(CCO)C1=NC(c2ccccc2)=[O+][Pt-2]2([S]1)[n+]1ccc(Cl)cc1-c1cc(Cl)cc[n+]12.[Cl-] :: > 20 µM
COC(=O)c1cc[n+]2c(c1)-c1cc(C(=O)OC)cc[n+]1[Pt-2]21[O+]=C(c2ccccc2)N=C(N(CCO)CCO)[S]1.[Cl-] :: > 20 µM
Cc1cccc(-c2cccc(C)n2)n1.OCCN(CCO)C(=S)N=C([O][Pt+])c1ccccc1.[Cl-] :: 9.51 µM
OCCN(CCO)C1=NC(c2ccccc2)=[O+][Pt-2]2([S]1)[n+]1ccc(C(F)(F)F)cc1-c1cc(C(F)(F)F)cc[n+]12.[Cl-] :: > 20 µM

Continue with the next molecule.
Query string: Recorded IC50 for OCCN(CCO)C1=NC(c2ccccc2)=[O+][Pt-2]2([S]1)[n+]1ccc(O)cc1-c1cc(O)cc[n+]12.[Cl-] , please?
Result string: > 20 µM
